Quick reference: kon of the listed items.
biological target: DN-IV quality control recombinant protein (produced by the company) (dengue virus); test: BLI, antibody on AMC sensor
TEST READOUT: kon (M⁻¹ s⁻¹)

>>> result_value("Mutation 1-53 (antibody, V domains shown) VH: EVQLQQPGPELVKPGASVKMSCKASGYTFTSYVIHWVRQKPGQGLEWIGYMNPYNDGIKYNEKFIGKAILTSDKSSSTAYMQLSSLTSEDSAVYYCTREGLFYVMDYWGQGTSVTVSS VL: QIVLTQSPAIMSASPGEKVTMTCSATSSVSYMHWYQQKSGTSPKRWIYDTSKLASGVPVRFSGSGSGTSYSLTISSMEAEDAATYFCQYWRSDLPTFGAGTKLELKR")
42500
>>> result_value("Mutation 1-26 (antibody, V domains shown) VH: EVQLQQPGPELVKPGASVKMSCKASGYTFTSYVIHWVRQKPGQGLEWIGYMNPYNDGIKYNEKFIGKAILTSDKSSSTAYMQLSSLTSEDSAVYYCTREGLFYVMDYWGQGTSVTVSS VL: QIVLTQSPAIMSASPGEKVTMTCSATSSLSYMHWYQQKSGTSPKRWIYDTSKLASGVPVRFSGSGSGTSYSLTISSMEAEDAATYFCQWWRSDLPTFGAGTKLELKR")
42100
>>> result_value("Mutation 1-9 (antibody, V domains shown) VH: EVQLQQPGPELVKPGASVKMSCKASGYTFTSTVIHWVRQKPGQGLEWIGYMNPYNDGLKYNEKFIGKAILTSDKSSSTAYMQLSSLTSEDSAVYYCTREGLFYVFDYWGQGTSVTVSS VL: QIVLTQSPAIMSASPGEKVTMTCSATSSISYMHWYQQKSGTSPKRWIYDSSKLASGVPVRFSGSGSGTSYSLTISSMEAEDAATYFCQYWRSDLPTFGAGTKLELKR")
430000
>>> result_value("Mutation 1-31 (antibody, V domains shown) VH: EVQLQQPGPELVKPGASVKMSCKASGYTFTSSVIHWVRQKPGQGLEWIGYMNPYNDGIKYNEKFIGKAILTSDKSSSTAYMQLSSLTSEDSAVYYCTREGLFYVFDYWGQGTSVTVSS VL: QIVLTQSPAIMSASPGEKVTMTCSATSSVSYMHWYQQKSGTSPKRWIYDSSKLASGVPVRFSGSGSGTSYSLTISSMEAEDAATYFCQWWRSDLPTFGAGTKLELKR")
397000
>>> result_value("Mutation 1-52 (antibody, V domains shown) VH: EVQLQQPGPELVKPGASVKMSCKASGYTFTSSVIHWVRQKPGQGLEWIGYMNPYNDGLKYNEKFIGKAILTSDKSSSTAYMQLSSLTSEDSAVYYCTKEGLFYVFDYWGQGTSVTVSS VL: QIVLTQSPAIMSASPGEKVTMTCSATSSLSYMHWYQQKSGTSPKRWIYDSSKLASGVPVRFSGSGSGTSYSLTISSMEAEDAATYFCQQWRSDLPTFGAGTKLELKR")
41000
